# credit: patent US6337346B1

# Tested on: SK-MEL-2
# Assay: NCI in vitro disease-oriented tumor cells screen
# Format: cell-based, human
# Experimental Parameters: Homo sapiens; Melanoma SK-MEL-2; Table 2; average of at least two testings; read-out: Cytotoxicity log GI50 (converted)
Observation Type: GI50
Hey, just the number and the unit after it is fine.

# GI50 of CC(=O)OC(C)c1cc2c(s1)C(=O)c1c(C(C)OC(C)=O)csc1C2=O (stereo not shown) = 1550 nM

# GI50 of CC(=O)OC(C)c1cc2c(s1)C(=O)c1sccc1C2=O (stereo not shown) = 417 nM

# GI50 of CC(O)c1cc2c(s1)C(=O)c1c(C(C)O)csc1C2=O (stereo not shown) = 112 nM

# GI50 of CC(=O)c1cc2c(s1)C(=O)c1sccc1C2=O = 33.1 nM

# GI50 of CC(=O)OC(C)c1cc2c(s1)C(=O)c1ccsc1C2=O (stereo not shown) = 26.3 nM

# GI50 of CC(=O)c1cc2c(s1)C(=O)c1c(C(C)=O)csc1C2=O = 1740 nM

# GI50 of CC(O)c1cc2c(s1)C(=O)c1sccc1C2=O (stereo not shown) = 30.9 nM
